- measurement_target: Man(a1-3)[Man(a1-6)]Man(a1-6)[Man(a1-3)]Man
- procedure_details: glycan array binding signal (z-score within array); higher = stronger binding
- assay_conditions: glycan notation: IUPAC condensed, linker removed
Many of the other results were omitted from the sample, so the strongest signals are more common in it than they were.
measured_property: glycan array binding signal (z-score)

Request: Name the recorded glycan array binding signal (z-score) for L-Selectin (Homo sapiens), P14151 (protein) MIFPWKCQSTQRDLWNIFKLWGWTMLCCDFLAHHGTDCWTYHYSEKPMNWQRARRFCRDNYTDLVAIQNKAEIEYLEKTLPFSRSYYWIGIRKIGGIWTWVGTNKSLTEEAENWGDGEPNNKKNKEDCVEIYIKRNKDAGKWNDDACHKLKAALCYTASCQPWSCSGHGECVEIINNYTCNCDVGYYGPQCQFVIQCEPLEAPELGTMDCTHPLGNFSFSSQCAFSCSEGTNLTGIEETTCGPFGNWSSPEPTCQVIQCEPLSAPDLGIMNCSHPLASFSFTSACTFICSEGTELIGKKKTICESSGIWSNPSPICQKLDKSFSMIKEGDYNPLFIPVAVMVTAFSGLAFIIWLARRLKKGKKSKRSMNDPY .
Response: -0.198

Provenance of the data: the supplement of paper PMC8728848
